molecular target: Nuclear factor erythroid 2-related factor 2 (Homo sapiens); assay: Activation of Nrf2 (unknown origin) expressed in human HepG2 cells after 5 hrs by ARE-driven luciferase reporter gene assay
The label is Yes for EC50 below 4 µM and No for EC50 equal to or exceeding 4 µM.

> print(dat)
                              compound  discrete.label
 1        COc1ccc(/C=C/c2cccc(O)c2)cc1              No
 2          Fc1ccccc1/C=C/c1ccc(Cl)cc1             Yes
 3  COc1cccc(/C=C/c2ccc(C(C)C)cc2)c1OC             Yes
 4        COc1cccc(/C=C/c2ccc(F)cc2)c1              No
 5          Fc1ccc(/C=C/c2ccccc2F)cc1F              No
 6            COc1ccccc1/C=C/c1ccccc1F             Yes
 7              Fc1ccccc1/C=C/c1ccccc1             Yes
 8      Oc1ccc(/C=C/c2cc(O)cc(O)c2)cc1              No
 9         Fc1ccc(/C=C/c2cccc(F)c2)cc1             Yes
10         COc1cccc(/C=C/c2ccccc2OC)c1              No
11        COc1ccc(/C=C/c2ccc(F)cc2)cc1              No
12       COc1ccc(/C=C/c2cc(F)ccc2F)cc1             Yes
13            Fc1ccc(/C=C/c2ccccc2)cc1              No
14        COc1ccc(/C=C/c2cccc(F)c2)cc1              No
15             Fc1ccccc1/C=C/c1ccccc1F              No
16          COc1cccc(/C=C/c2ccccc2F)c1             Yes
17      COc1ccc(/C=C/c2ccc(F)cc2)cc1OC             Yes
18     COc1cccc(/C=C/c2cc(OC)ccc2OC)c1              No

----------
# Lookup of reported pEC50 keyed by entry
biological target: Nuclear factor erythroid 2-related factor 2 (Homo sapiens, UniProt Q16236); assay: Activation of Nrf2 (unknown origin) expressed in human HepG2 cells after 5 hrs by ARE-driven luciferase reporter gene assay
Sequence (Q16236 whole entry): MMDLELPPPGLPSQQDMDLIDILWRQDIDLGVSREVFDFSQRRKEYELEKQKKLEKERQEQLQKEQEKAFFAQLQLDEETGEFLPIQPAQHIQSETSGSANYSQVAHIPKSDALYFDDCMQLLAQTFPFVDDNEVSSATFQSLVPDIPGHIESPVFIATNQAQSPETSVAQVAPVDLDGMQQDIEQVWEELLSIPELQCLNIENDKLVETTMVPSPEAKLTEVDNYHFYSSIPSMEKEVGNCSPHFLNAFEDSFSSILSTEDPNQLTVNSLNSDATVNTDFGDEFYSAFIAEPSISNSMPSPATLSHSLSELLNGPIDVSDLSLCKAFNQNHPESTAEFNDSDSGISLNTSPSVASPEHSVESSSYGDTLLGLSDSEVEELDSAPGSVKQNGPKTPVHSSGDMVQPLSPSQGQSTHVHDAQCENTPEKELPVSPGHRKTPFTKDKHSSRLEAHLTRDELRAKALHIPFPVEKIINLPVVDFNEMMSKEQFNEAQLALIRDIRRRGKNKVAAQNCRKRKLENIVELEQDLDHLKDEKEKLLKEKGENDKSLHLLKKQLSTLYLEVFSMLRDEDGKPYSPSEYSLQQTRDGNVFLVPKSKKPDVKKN
pEC50: −log10 of the molar value.
Measured Attribute: pEC50

> print(dat)
                                    compound  reported.relation  value
 1            COc1ccc(/C=C/c2cccc(F)c2)cc1OC                  =   5.02
 2                 Fc1cccc(/C=C/c2ccccc2F)c1                  <   4.82
 3               COc1ccc(/C=C/c2ccccc2Cl)cc1                  =   5.51
 4              Fc1cccc(/C=C/c2cc(F)ccc2F)c1                  =   6.52
 5     COc1cccc(/C=C/c2ccc(C(F)(F)F)cc2)c1OC                  =   5.66
 6            Fc1cccc(/C=C/c2ccc(F)c(F)c2)c1                  =   5.30
 7               Cc1ccc(/C=C/c2cccc(F)c2)cc1                  =   6.10
 8       O=[N+]([O-])c1cccc(/C=C/c2ccccc2)c1                  =   5.52
 9              Fc1ccc(F)c(/C=C/c2ccccc2F)c1                  =   5.23
10       COc1ccc(OC)c(/C=C/c2ccc(OC)cc2OC)c1                  =   6.10
11              Fc1cccc(/C=C/c2ccc(F)cc2F)c1                  =   6.35
12            Fc1ccc(/C=C/c2ccc(F)c(F)c2)cc1                  <   4.82
13  COc1ccc(/C=C/c2ccc(OC)cc2OC)cc1 [(E)2'',4,4''-Trimethoxystilbene]                  =   5.34

Just for reference, BindingDB's records for doi:10.1016/j.bmc.2017.01.005 is where these values come from.
